The origin of these recorded values is the supplement of paper PMC10567573.

B1: WEE1 (parent)
chain: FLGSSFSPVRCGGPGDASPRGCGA

# Variants of: B1
# TEST_METHOD_NOTES: protein stability index of a GFP-peptide fusion (GPS, HEK-293T) (PSI 1-6); higher = more stable;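 note: lentivirally expressed fusions sorted by FACS into six bins by GFP to DsRed ratio, PSI derived from sequencing read proportions per bin multiplied by bin number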
# STATED_CONDITIONS: c terminus: a fixed tail appended
Recorded protein stability index by entry

| SEQUENCE_VARIANT | protein stability index |
| --- | --- |
| P19Q | 1.57 |
| F6L | 2.84 |
| C11Q | 2.48 |
| C11L | 2.22 |
| G12E | 2.03 |
| R10I | 2.25 |
| P8D | 1.97 |
| P8Y | 1.78 |
| S5T | 1.59 |
| C22T | 2.47 |
| D16S | 2.09 |
| G12M | 1.83 |
| P14I | 2.29 |
| P19G | 2 |
| R20P | 2.14 |
| A24L | 1.82 |
| S18Y | 1.65 |
| F6P | 3.52 |
| P19T | 1.88 |
| G3L | 1.65 |
| P8E | 2.23 |
| S18L | 2 |
